- experimentalProtocol: Intrinsic clearance by mouse liver microsomes
- Assay type: in vitro ADME
- recordedConditions: mouse, liver microsomes
CLint scaled listing for selected compounds.
Kindly answer with a numeric value in L/h/kg, unit omitted.

| compound | unitOfMeasurement | CLint scaled |
| --- | --- | --- |
| O=C(O)c1cccc(Cc2cc(Cl)ccc2OCc2ccc(Cl)cc2F)n1 [Compound 7, reference compound] | L/h/kg | 5.08 |
| CC(C)CNC(=O)c1cccc(Cc2cc(Cl)ccc2OCc2ccc(Cl)cc2F)n1 | L/h/kg | 588 |

API: the following record is the query input.
In: Consider the compound Cc1ccc(S(=O)(=O)NC(=O)c2cccc(Cc3cc(Cl)ccc3OCc3ccc(Cl)cc3F)n2)cc1 and give its measured CLint scaled.
Out: 302

----------
- experimentalProtocol: Intrinsic clearance by mouse liver microsomes
- Type: in vitro ADME
- recordedConditions: mouse, liver microsomes
endpoint: CLint scaled
Just so you know, I need the unit written after the number.

// worked examples, CLint scaled included
| structureSmiles | CLint scaled |
| --- | --- |
| O=C(NCC1CC1)c1cccc(Cc2cc(Cl)ccc2OCc2ccc(Cl)cc2F)n1 | 683 L/h/kg |
| O=C(NS(=O)(=O)c1ccc(Cl)c(Cl)c1)c1cccc(Cc2cc(Cl)ccc2OCc2ccc(Cl)cc2F)n1 | 180 L/h/kg |
| O=C(NS(=O)(=O)c1ccc(Cl)cc1)c1cccc(Cc2cc(Cl)ccc2OCc2ccc(Cl)cc2F)n1 | 136 L/h/kg |

In: Dear colleague, I am looking for the recorded CLint scaled of the following molecule: CCN(CC)C(=O)c1cccc(Cc2cc(Cl)ccc2OCc2ccc(Cl)cc2F)n1
Out: 429 L/h/kg

----------
- experimentalProtocol: Intrinsic clearance by mouse liver microsomes
- Type: in vitro ADME
- recordedConditions: estimated from Clint; mouse hepatic blood flow QH 90 mL/min/kg
endpoint: CLHEP (predicted hepatic clearance) (mL/min/kg)
Dear colleague, please return just the value in mL/min/kg, with no unit written.

Example entries begin here.
| molecule | unitOfMeasurement | CLHEP (predicted hepatic clearance) |
| --- | --- | --- |
| O=C(O)c1cccc(Cc2cc(Cl)ccc2OCc2ccc(Cl)cc2F)n1 [Compound 7, reference compound] | mL/min/kg | 43.6 |
| O=C(NCC1CC1)c1cccc(Cc2cc(Cl)ccc2OCc2ccc(Cl)cc2F)n1 | mL/min/kg | 89.3 |
| Cc1ccc(S(=O)(=O)NC(=O)c2cccc(Cc3cc(Cl)ccc3OCc3ccc(Cl)cc3F)n2)cc1 | mL/min/kg | 88.4 |

In: Record request: CLHEP (predicted hepatic clearance) value, item CCN(CC)C(=O)c1cccc(Cc2cc(Cl)ccc2OCc2ccc(Cl)cc2F)n1
Out: 88.9

In: Request the reported CLHEP (predicted hepatic clearance) associated with O=C(NS(=O)(=O)c1ccc(Cl)c(Cl)c1)c1cccc(Cc2cc(Cl)ccc2OCc2ccc(Cl)cc2F)n1
Out: 87.4

In: So what's the measured CLHEP (predicted hepatic clearance) for this one? CC(C)CNC(=O)c1cccc(Cc2cc(Cl)ccc2OCc2ccc(Cl)cc2F)n1
Out: 89.2
